- Tested on: HeLa Kyoto
- Protocol Summary: solubility in G1/S (NP-40 vs SDS abundance) (log2 ratio); higher = more soluble
- Condition: cell cycle stage: G1/S
solubility in G1/S (log2) for assorted substances
Write the value as a bare number.

Past entries and their recorded results:
{"columns": ["Substance", "solubility in G1/S (log2)"],
 "data": [
  ["MEPKVAELKQKIEDTLCPFGFEVYPFQVAWYNELLPPAFHLPLPGPTLAFLVLSTPAMFDRALKPFLQSCHLRMLTDPVDQCVAYHLGRVRESLPELQIEIIADYEVHPNRRPKILAQTAAHVAGAAYYYQRQDVEADPWGNQRISGVCIHPRFGGWFAIRGVVLLPGIEVPDLPPRKPHDCVPTRADRIALLEGFNFHWRDWTYRDAVTPQERYSEEQKAYFSTPPAQRLALLGLAQPSEKPSSPSPDLPFTTPAPKKPGNPSRARSWLSPRVSPPASPGP [MMACHC]", 0.0435],
  ["MLVLRSALTRALASRTLAPQMCSSFATGPRQYDGIFYEFRSYYLKPSKMNEFLENFEKNAHLRTAHSELVGYWSVEFGGRMNTVFHIWKYDNFAHRTEVRKALAKDKEWQEQFLIPNLALIDKQESEITYLVPWCKLEKPPKEGVYELATFQMKPGGPALWGDAFKRAVHAHVNLGYTKLVGVFHTEYGALNRVHVLWWNESADSRAAGRHKSHEDPRVVAAVRESVNYLVSQQNMLLIPTSFSPLK [NIPSNAP3A]", -0.107],
  ["HNRNPAB", 0.308]
]}

Prompt: Supply measured solubility in G1/S (log2) of MGPVRLGILLFLFLAVHEAWAGMLKEEDDDTERLPSKCEVCKLLSTELQAELSRTGRSREVLELGQVLDTGKRKRHVPYSVSETRLEEALENLCERILDYSVHAERKGSLRYAKGQSQTMATLKGLVQKGVKVDLGIPLELWDEPSVEVTYLKKQCETMLEEFEDIVGDWYFHHQEQPLQNFLCEGHVLPAAETACLQETWTGKEITDGEEKTEGEEEQEEEEEEEEEEGGDKMTKTGSHPKLDREDL [CNPY4] in your reply.
Completion: 0.0586

Prompt: Supply measured solubility in G1/S (log2) of MADAASQVLLGSGLTILSQPLMYVKVLIQVGYEPLPPTIGRNIFGRQVCQLPGLFSYAQHIASIDGRRGLFTGLTPRLCSGVLGTVVHGKVLQHYQESDKGEELGPGNVQKEVSSSFDHVIKETTREMIARSAATLITHPFHVITLRSMVQFIGRESKYCGLCDSIITIYREEGILGFFAGLVPRLLGDILSLWLCNSLAYLVNTYALDSGVSTMNEMKSYSQAVTGFFASMLTYPFVLVSNLMAVNNCGLAGGCPPYSPIYTSWIDCWCMLQKEGNMSRGNSLFFRKVPFGKTYCCDLKMLI [MTCH2] in your reply.
Completion: 0.00924

Prompt: Supply measured solubility in G1/S (log2) of MSLRKQTPSDFLKQIIGRPVVVKLNSGVDYRGVLACLDGYMNIALEQTEEYVNGQLKNKYGDAFIRGNNVLYISTQKRRM [LSM6] in your reply.
Completion: 0.0787

Prompt: Supply measured solubility in G1/S (log2) of MDPGKDKEGVPQPSGPPARKKFVIPLDEDEVPPGVAKPLFRSTQSLPTVDTSAQAAPQTYAEYAISQPLEGAGATCPTGSEPLAGETPNQALKPGAKSNSIIVSPRQRGNPVLKFVRNVPWEFGDVIPDYVLGQSTCALFLSLRYHNLHPDYIHGRLQSLGKNFALRVLLVQVDVKDPQQALKELAKMCILADCTLILAWSPEEAGRYLETYKAYEQKPADLLMEKLEQDFVSRVTECLTTVKSVNKTDSQTLLTTFGSLEQLIAASREDLALCPGLGPQKARRLFDVLHEPFLKVP [ERCC1] in your reply.
Completion: 0.296

* * *

solubility in G1/S (log2) for assorted sequences
- System: HeLa Kyoto
- Protocol Summary: solubility in G1/S (NP-40 vs SDS abundance) (log2 ratio); higher = more soluble
- Condition: cell cycle stage: G1/S
Write the value as a bare number.

{"columns": ["Monomer Sequence", "solubility in G1/S (log2)"],
 "data": [
  ["MGSRASTLLRDEELEEIKKETGFSHSQITRLYSRFTSLDKGENGTLSREDFQRIPELAINPLGDRIINAFFPEGEDQVNFRGFMRTLAHFRPIEDNEKSKDVNGPEPLNSRSNKLHFAFRLYDLDKDEKISRDELLQVLRMMVGVNISDEQLGSIADRTIQEADQDGDSAISFTEFVKVLEKVDVEQKMSIRFLH [CHP1]", 0.256],
  ["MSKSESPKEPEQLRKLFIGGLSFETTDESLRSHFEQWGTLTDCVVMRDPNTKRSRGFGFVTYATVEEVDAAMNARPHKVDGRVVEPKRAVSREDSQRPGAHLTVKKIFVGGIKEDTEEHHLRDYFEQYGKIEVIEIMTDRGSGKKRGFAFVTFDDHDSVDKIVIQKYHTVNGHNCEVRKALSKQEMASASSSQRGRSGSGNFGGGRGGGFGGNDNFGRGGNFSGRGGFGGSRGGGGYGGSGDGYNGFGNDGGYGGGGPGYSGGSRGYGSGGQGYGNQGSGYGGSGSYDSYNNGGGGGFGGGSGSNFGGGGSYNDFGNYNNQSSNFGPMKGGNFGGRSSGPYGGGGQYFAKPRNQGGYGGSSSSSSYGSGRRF [HNRNPA1]", -0.184]
]}

// switching to the query sequence
Prompt: Quote solubility in G1/S (log2) with test system HeLa Kyoto for MASASARGNQDKDAHFPPPSKQSLLFCPKSKLHIHRAEISKIMRECQEESFWKRALPFSLVSMLVTQGLVYQGYLAANSRFGSLPKVALAGLLGFGLGKVSYIGVCQSKFHFFEDQLRGAGFGPQHNRHCLLTCEECKIKHGLSEKGDSQPSAS [OCIAD2]
Completion: 0.0856

* * *

- System: HeLa Kyoto
- Protocol Summary: solubility change mitosis vs G1/S (difference of NP-40 vs SDS log2 ratios) (log2 ratio difference); higher = more soluble in mitosis
solubility change mitosis (log2) for assorted sequences

{"columns": ["Monomer Sequence", "Recorded Metric", "Experimental Value"],
 "data": [
  ["MKEGRGSFSVERGPRKERETAQSGMWKGNSPAGSQGAAMEGTGGELGGQGNWGPEDAPGLLARASLIMLPWPLPLASSALTLLFGALTSLFLWYCYRLGSQDMQALGAGSRAGGVRGGPVGCSEAGGPSPGGPGDPGEGPRTEGLVSRRLRAYARRYSWAGMGRVRRAAQGGPGPGRGPGVLGIQRPGLLFLPDLPSAPFVPRDAQRHDVELLESSFPAILRDFGAVSWDFSGTTPPPRGWSPPLAPGCYQLLLYQAGRCQPSNCRRCPGAYRALRGLRSFMSANTFGNAGFSVLLPGARLEGRCGPTNARVRCHLGLKIPPGCELVVGGEPQCWAEGHCLLVDDSFLHTVAHNGSPEDGPRVVFIVDLWHPNVAGAERQALDFVFAPDP [ASPHD1]", "solubility change mitosis (log2)", -0.229]
]}

Prompt: Supply measured solubility change mitosis (log2) of MPNWGGGKKCGVCQKTVYFAEEVQCEGNSFHKSCFLCMVCKKNLDSTTVAVHGEEIYCKSCYGKKYGPKGYGYGQGAGTLSTDKGESLGIKHEEAPGHRPTTNPNASKFAQKIGGSERCPRCSQAVYAAEKVIGAGKSWHKACFRCAKCGKGLESTTLADKDGEIYCKGCYAKNFGPKGFGFGQGAGALVHSE [CSRP1] in your reply.
Completion: -0.142

Prompt: Supply measured solubility change mitosis (log2) of MPGLVDSNPAPPESQEKKPLKPCCACPETKKARDACIIEKGEEHCGHLIEAHKECMRALGFKI [COX17] in your reply.
Completion: 0.425

* * *

- Tested on: HeLa Kyoto
- Protocol Summary: solubility in G1/S (NP-40 vs SDS abundance) (log2 ratio); higher = more soluble
- Condition: cell cycle stage: G1/S
solubility in G1/S (log2) for assorted substances
Write the value as a bare number.

Past entries and their recorded results:
{"columns": ["Substance", "solubility in G1/S (log2)"],
 "data": [
  ["MAVTEASLLRQCPLLLPQNRSKTVYEGFISAQGRDFHLRIVLPEDLQLKNARLLCSWQLRTILSGYHRIVQQRMQHSPDLMSFMMELKMLLEVALKNRQELYALPPPPQFYSSLIEEIGTLGWDKLVYADTCFSTIKLKAEDASGREHLITLKLKAKYPAESPDYFVDFPVPFCASWTPQSSLISIYSQFLAAIESLKAFWDVMDEIDEKTWVLEPEKPPRSATARRIALGNNVSINIEVDPRHPTMLPECFFLGADHVVKPLGIKLSRNIHLWDPENSVLQNLKDVLEIDFPARAILEKSDFTMDCGICYAYQLDGTIPDQVCDNSQCGQPFHQICLYEWLRGLLTSRQSFNIIFGECPYCSKPITLKMSGRKH [FANCL]", 0.184],
  ["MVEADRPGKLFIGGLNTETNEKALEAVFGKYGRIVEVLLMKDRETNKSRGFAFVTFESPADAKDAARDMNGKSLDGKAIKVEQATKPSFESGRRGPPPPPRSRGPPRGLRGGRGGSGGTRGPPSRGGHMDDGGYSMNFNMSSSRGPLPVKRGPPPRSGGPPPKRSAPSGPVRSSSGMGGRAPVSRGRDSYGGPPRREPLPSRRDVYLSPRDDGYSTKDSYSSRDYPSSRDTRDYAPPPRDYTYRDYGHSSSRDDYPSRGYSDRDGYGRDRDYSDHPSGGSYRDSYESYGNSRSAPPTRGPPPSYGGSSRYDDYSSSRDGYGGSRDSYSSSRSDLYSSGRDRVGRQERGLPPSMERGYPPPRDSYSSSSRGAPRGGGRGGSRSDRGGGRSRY [RBMX]", -0.567],
  ["CASKIN2", 0.412]
]}

Prompt: Supply measured solubility in G1/S (log2) of MAAERQEALREFVAVTGAEEDRARFFLESAGWDLQIALASFYEDGGDEDIVTISQATPSSVSRGTAPSDNRVTSFRDLIHDQDEDEEEEEGQRFYAGGSERSGQQIVGPPRKKSPNELVDDLFKGAKEHGAVAVERVTKSPGETSKPRPFAGGGYRLGAAPEEESAYVAGEKRQHSSQDVHVVLKLWKSGFSLDNGELRSYQDPSNAQFLESIRRGEVPAELRRLAHGGQVNLDMEDHRDEDFVKPKGAFKAFTGEGQKLGSTAPQVLSTSSPAQQAENEAKASSSILIDESEPTTNIQIRLADGGRLVQKFNHSHRISDIRLFIVDARPAMAATSFILMTTFPNKELADESQTLKEANLLNAVIVQRLT [NSFL1C] in your reply.
Completion: 0.384

Prompt: Supply measured solubility in G1/S (log2) of MADSERLSAPGCWAACTNFSRTRKGILLFAEIILCLVILICFSASTPGYSSLSVIEMILAAIFFVVYMCDLHTKIPFINWPWSDFFRTLIAAILYLITSIVVLVERGNHSKIVAGVLGLIATCLFGYDAYVTFPVRQPRHTAAPTDPADGPV [PLP2] in your reply.
Completion: -0.0955

Prompt: Supply measured solubility in G1/S (log2) of MAAPALRLCHIAFHVPAGQPLARNLQRLFGFQPLASREVDGWRQLALRSGDAVFLVNEGAGSGEPLYGLDPRHAVPSATNLCFDVADAGAATRELAALGCSVPVPPVRVRDAQGAATYAVVSSPAGILSLTLLERAGYRGPFLPGFRPVSSAPGPGWVSRVDHLTLACTPGSSPTLLRWFHDCLGFCHLPLSPGEDPELGLEMTAGFGLGGLRLTALQAQPGSIVPTLVLAESLPGATTRQDQVEQFLARHKGPGLQHVGLYTPNIVEATEGVATAGGQFLAPPGAYYQQPGKERQIRAAGHEPHLLARQGILLDGDKGKFLLQVFTKSLFTEDTFFLELIQRQGATGFGQGNIRALWQSVQEQSARSQEA [HPDL] in your reply.
Completion: 0.23

Hey, just so you know, these numbers are from the supplement of paper PMC5998384.
